test system: L1210 leukemia ip in BDF1 mice, survival T/C; assay: NCI In Vivo Anticancer Drug Screen. Data for tumor model L1210 Leukemia (intraperitoneal) in B6D2F1 (BDF1) mice; conditions: endpoint: mean survival time; dose: 100.0 mg/kg/injection; schedule: Q04DX002 (ip); vehicle: gum acacia; higher = longer survival
Inconclusive results and toxic doses are left out.
Each item that follows carries a reported T/C.

Previously resolved entries follow.
>>> result("NC(=S)N/N=C/c1cccc2ccccc12")
"91 % of control"
>>> result("S=c1cccc[nH]1.[Pb]")
"103 % of control"
>>> result("c1ccc(-c2nc3ccccc3s2)cc1")
"101 % of control"
>>> result("CCOc1ccc(Br)cc1/C=N\\NC(=O)c1ccccc1N(C)C")
"90 % of control"
>>> result("CC(C)S.[Pb]")
"100 % of control"

Req: T/C for "Oc1c(Br)cc(-c2ccccc2)cc1Br" ?
Resp: 95 % of control

Req: T/C for "CC(C)c1ccc(NC(=S)NC(=O)c2ccccc2)cc1" ?
Resp: 103 % of control
